system: KM12 colon; assay: NCI tumour cell line growth inhibition, 48 h; in the data active means GI50 below about 0.43 µM; inactive means the rest
Possible outcomes: active, inactive

[
  {
    "compound": "CCOC(=O)/N=c1\\ss/c(=N\\C(=S)N(C)C)n1-c1ccccc1",
    "qualitativeLabel": "inactive"
  },
  {
    "compound": "COc1cccc(NC(=O)c2sc3nc4c(cc3c2N)CCCC4)c1",
    "qualitativeLabel": "active"
  },
  {
    "compound": "COC(=O)c1cnc(=O)n(C2CC(O)C(CO)O2)c1 (stereo unspecified)",
    "qualitativeLabel": "inactive"
  },
  {
    "compound": "COC(=O)[C@]12CC[C@@H](C)[C@H](C)[C@@H]1C1=CC[C@@H]3[C@@]4(C)CC(=O)[C@H](O)[C@@]5(C)COC(=C45)C[C@@]3(C)[C@]1(C)CC2",
    "qualitativeLabel": "inactive"
  },
  {
    "compound": "O=c1c(Cl)nnc2sc3ccccc3n12",
    "qualitativeLabel": "inactive"
  },
  {
    "compound": "CC12OC(C(=O)C13CC3)C1C(=O)c3ccccc3C(=O)C12 (stereo unspecified)",
    "qualitativeLabel": "inactive"
  },
  {
    "compound": "O=[N+]([O-])c1ccc(N/N=C\\c2cc(Cl)ccc2O)nc1",
    "qualitativeLabel": "inactive"
  },
  {
    "compound": "COc1cc[nH]c1/C=C1\\C(=O)Nc2ccc(F)c(C#C[C@@H](O)[C@@H](N)[C@@H](C)O)c21",
    "qualitativeLabel": "active"
  },
  {
    "compound": "COc1ccc(-c2cc(-c3ccc(Nc4nc(Nc5ccc(Cl)cc5)nc(Nc5ccc(Cl)cc5)n4)cc3)nc(N)c2C#N)cc1",
    "qualitativeLabel": "inactive"
  },
  {
    "compound": "Cc1cc2c(C)c3cc(C)c(N)cc3nc2cc1N",
    "qualitativeLabel": "inactive"
  },
  {
    "compound": "COc1cc2cc(Oc3ccc(NC(=O)Nc4cccc(C(F)(F)F)c4)cc3)c(C)nc2cc1OCCN1CCCCC1",
    "qualitativeLabel": "inactive"
  },
  {
    "compound": "O=C1c2cc3c(cc2-c2c1c1cc(Cl)c(Cl)cc1c(=O)n2CCCn1ccnc1)OCO3",
    "qualitativeLabel": "active"
  },
  {
    "compound": "Cc1ccc(-c2c(C#N)c(N)nc(N3CCOCC3)c2C#N)o1",
    "qualitativeLabel": "inactive"
  },
  {
    "compound": "Cc1ccc(S(=O)(=O)NC(CCC(=O)Nc2ccc(Cl)cc2)C(=O)Nc2ccc(Cl)cc2)cc1 (stereo unspecified)",
    "qualitativeLabel": "active"
  },
  {
    "compound": "CC1(C)N=C(N)N=C(N)N1c1cccc(/C=C/C=C/c2cccc([N+](=O)[O-])c2)c1",
    "qualitativeLabel": "inactive"
  },
  {
    "compound": "COc1cc2c(cc1OC)C(=O)C(Br)CC2 (stereo unspecified)",
    "qualitativeLabel": "inactive"
  },
  {
    "compound": "O=C(Nc1ccncc1)C(=O)c1cn(S(=O)(=O)c2ccc(Br)cc2)c2ccccc12",
    "qualitativeLabel": "inactive"
  },
  {
    "compound": "CC(=O)[CH-]C(=O)c1ccccc1.CC(=O)[CH-]C(=O)c1ccccc1.CCN(CC)CC[O-].CCN(CC)CC[O-].Cl.[Ti+4]",
    "qualitativeLabel": "inactive"
  },
  {
    "compound": "CCCCCCCCCCCCc1ccc(C(=O)/C=C/C(=O)O)cc1",
    "qualitativeLabel": "inactive"
  },
  {
    "compound": "COc1cc(-c2cc(C(=O)N3CCN(C(=O)c4ccccc4NCc4ccco4)CC3)nc3cc(-c4ccccc4)nn23)cc(OC)c1OC",
    "qualitativeLabel": "inactive"
  },
  {
    "compound": "Cn1cc(-c2ccc(=O)n(Cc3cccc(-c4ncc(OCCN5CCOCC5)cn4)c3)n2)cn1",
    "qualitativeLabel": "inactive"
  }
]
